system: Plasmodium falciparum NF54 stage V gametocytes; assay: viability index relative to DMSO control (fraction); higher = less gametocyte killing; details: 1.25 µM, incubation time: 72 h;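 further: Saponin-lysis sexual stage assay in serum-free medium: MitoTracker Red CMXRos staining plus saponin, high-content imaging, particle count per well divided by plate mean of DMSO wells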
In all, about 3,600 compounds were measured (“viability index relative to DMSO control”: median about 0.81, lowest 2% from about 0.13 on). Only a selection was taken, and the lowest values are over-represented in it overall.
A collection of compounds and their measured viability index
PROPERTY: viability index

compound=Oc1ccccc1C=Nc1ccccc1[Te]c1ccccc1N=Cc1ccccc1O property="viability index" result_value=0.0513
compound=CN1CCN(c2ccc(NC(=O)Oc3ccccc3)cc2)CC1 property="viability index" result_value=0.798
compound=O=C(Cn1c2ccccc2c(=O)c2ccccc21)Nc1ccc(Cl)cc1C(=O)c1ccccc1 property="viability index" result_value=0.781
compound=Cc1ccc(-n2c(C)c(C(=O)c3ccccc3)c3cc(O)ccc32)cc1 property="viability index" result_value=1.24
compound=CC(C)NC(=O)c1cn(Cc2ccccc2)cc(C(=O)NCCc2nc3ccccc3[nH]2)c1=O property="viability index" result_value=0.942
compound="C=CC1CN2CCC1CC2C(OC(=O)c1ccco1)c1ccnc2ccccc12 (centres undefined)" property="viability index" result_value=0.46
compound="OC1(c2ccc(Cl)c(C(F)(F)F)c2)CCN(CCOC2c3ccccc3CSc3ccc(Cl)cc32)CC1 (centres undefined)" property="viability index" result_value=0.589
compound=COc1ccc(-c2ccc(C=C3C(=O)NC(=S)NC3=O)o2)cc1Cl property="viability index" result_value=0.866
compound=CC(C)N1CC=C(c2c[nH]c3ccccc23)CC1 property="viability index" result_value=0.887
